test.method.notes: Compound was evaluated for half life after treatment with iv dose of 1 mgkg to female wistar rats
Format: ADME, organism-based
Parameters: dose 1 mgkg, route intravenous
test.context: rat, in vivo, 1 mg/kg
quantity.name: half-life

Qu. // half-life lookup, key: `COc1ccc(C(=O)/C(Cc2cc(OC)c(OC)c(OC)c2)=C(\C(=O)[O-])c2ccc3nsnc3c2)cc1F.[Na+]`
Ans. 102 min

----------
test.method.notes: Compound was evaluated for half-life after treatment with iv dose of 1 mgkg to female cynomolgus monkey
Type: ADME, organism-based
Design: dose 1 mgkg, route intravenous
test.context: cercopithecidae, in vivo, 1 mg/kg
quantity.name: half-life (h)
Express your answer in h, writing the number without its unit.

Qu. // half-life lookup, key: `COc1ccc(C(=O)/C(Cc2cc(OC)c(OC)c(OC)c2)=C(\C(=O)[O-])c2ccc3nsnc3c2)cc1F.[Na+]`
Ans. 1

Data credit: ChEMBL document CHEMBL1130878
